# Tested on: fibrinogen
# experiment: Fibrinogen assay (Example 45)
# Type: in vivo, cynomolgus monkeys
# condition_details: plasma; day 78; escalating dose regimen
readout_kind: fibrinogen levels

ISIS 416850: MOE gapmer, nucleobases 1275 to 1318 of SEQ ID NO: 1 (Table 8) (antisense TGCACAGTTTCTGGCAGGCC; MOE gapmer, wing and gap sizes not given here) = 177 mg/dL
ISIS 416858: MOE gapmer, nucleobases 1275 to 1318 of SEQ ID NO: 1 (Table 8) (antisense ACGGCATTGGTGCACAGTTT; MOE gapmer, wing and gap sizes not given here) = 234 mg/dL
ISIS 417002: MOE gapmer, nucleobases 1275 to 1318 of SEQ ID NO: 1 (Table 8) (antisense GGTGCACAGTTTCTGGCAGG; MOE gapmer, wing and gap sizes not given here) = 221 mg/dL
ISIS 416838: MOE gapmer, nucleobases 1018 to 1042 of SEQ ID NO: 1 (Table 6) (antisense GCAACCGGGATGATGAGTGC; MOE gapmer, wing and gap sizes not given here) = 189 mg/dL
ISIS 416864: MOE gapmer, nucleobases 1275 to 1318 of SEQ ID NO: 1 (Table 8) (antisense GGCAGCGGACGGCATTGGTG; MOE gapmer, wing and gap sizes not given here) = 250 mg/dL

###

# condition_details: rat, in vivo, sc, 50 mg/kg
e = 2'-O-(2-methoxyethyl) (MOE); d = 2'-deoxy (DNA)
readout_kind: BUN (mg/dL)

ISIS 445509: 5-8-5 or 6-8-6 MOE microwalk gapmer (Table 44) (antisense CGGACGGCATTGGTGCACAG; sugars from the 5' end e6 d8 e6, backbone and methylation of C not given here) = 27
ISIS 445498: 5-8-5 or 6-8-6 MOE microwalk gapmer (Table 44) (antisense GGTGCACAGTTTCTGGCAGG; sugars from the 5' end e6 d8 e6, backbone and methylation of C not given here) = 25
ISIS 445505: 5-8-5 or 6-8-6 MOE microwalk gapmer (Table 44) (antisense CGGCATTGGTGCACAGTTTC; sugars from the 5' end e6 d8 e6, backbone and methylation of C not given here) = 24
ISIS 445530: 5-8-5 or 6-8-6 MOE microwalk gapmer (Table 44) (antisense GCATTGGTGCACAGTTTC; sugars from the 5' end e5 d8 e5, backbone and methylation of C not given here) = 22
ISIS 445504: 5-8-5 or 6-8-6 MOE microwalk gapmer (Table 44) (antisense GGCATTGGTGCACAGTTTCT; sugars from the 5' end e6 d8 e6, backbone and methylation of C not given here) = 26
ISIS 445513: 5-8-5 or 6-8-6 MOE microwalk gapmer (Table 44) (antisense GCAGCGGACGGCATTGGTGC; sugars from the 5' end e6 d8 e6, backbone and methylation of C not given here) = 24

###

# Tested on: Factor 11 protein
# experiment: Factor 11 protein in monkey plasma by sandwich ELISA (Example 46)
# Format: in vivo, cynomolgus monkeys
# condition_details: Day 17, plasma, 25 mg/kg subcutaneously
Strand notation (5' to 3'): a small letter for the sugar, then the base; units joined by * are phosphorothioate-linked, units joined directly phosphodiester-linked; [ ] holds rarer units or linkages, { } end groups; capitals alone tell only the bases. e = 2'-O-(2-methoxyethyl) (MOE); [5mC] = 5-methylcytosine; d = 2'-deoxy (DNA)
Inhibition of Factor 11 protein relative to the PBS control (percentage reduction): recorded values
readout_kind: Inhibition of Factor 11 protein relative to the PBS control (percentage reduction) (%)

416858 (antisense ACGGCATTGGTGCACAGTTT; 5-10-5 gapmer, further chemistry not given here) [compound 416858] = 49
416850 (antisense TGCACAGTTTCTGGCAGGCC; 5-10-5 gapmer, further chemistry not given here) [compound 416850] = 31
449711 (antisense eA*e[5mC]*dA*dG*dT*dT*dT*d[5mC]*dT*dG*dG*d[5mC]*eA*eG) [compound 449711] = 3

###

# condition_details: rat, in vivo, sc, 50 mg/kg
e = 2'-O-(2-methoxyethyl) (MOE); d = 2'-deoxy (DNA)
The label is Y for ALT below 50 IU/L and N for ALT equal to or exceeding 50 IU/L.

ISIS 416867: MOE gapmer, nucleobases 1275 to 1318 of SEQ ID NO: 1 (Table 8) (antisense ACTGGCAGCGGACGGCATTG; MOE gapmer, wing and gap sizes not given here) = Y
ISIS 412225: 5-10-5 MOE gapmer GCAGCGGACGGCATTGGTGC (sugars from the 5' end e5 d10 e5, backbone and methylation of C not given here) = Y
ISIS 413482: 5-10-5 MOE gapmer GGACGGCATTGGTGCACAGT (sugars from the 5' end e5 d10 e5, backbone and methylation of C not given here) = N
ISIS 416859: MOE gapmer, nucleobases 1275 to 1318 of SEQ ID NO: 1 (Table 8) (antisense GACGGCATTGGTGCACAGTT; MOE gapmer, wing and gap sizes not given here) = N
ISIS 416863: MOE gapmer, nucleobases 1275 to 1318 of SEQ ID NO: 1 (Table 8) (antisense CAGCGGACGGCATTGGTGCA; MOE gapmer, wing and gap sizes not given here) = Y
ISIS 416860: MOE gapmer, nucleobases 1275 to 1318 of SEQ ID NO: 1 (Table 8) (antisense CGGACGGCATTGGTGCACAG; MOE gapmer, wing and gap sizes not given here) = N
ISIS 416866: MOE gapmer, nucleobases 1275 to 1318 of SEQ ID NO: 1 (Table 8) (antisense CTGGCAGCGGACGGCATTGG; MOE gapmer, wing and gap sizes not given here) = Y
ISIS 416848: MOE gapmer, nucleobases 1275 to 1318 of SEQ ID NO: 1 (Table 8) (antisense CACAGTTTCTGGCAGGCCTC; MOE gapmer, wing and gap sizes not given here) = N

###

# experiment: Liver function, ALT, AST, bilirubin in cynomolgus monkeys (Example 45)
# Format: in vivo
# condition_details: plasma; day 85; escalating dose regimen
readout_kind: ALT (IU/L)

ISIS 416858: MOE gapmer, nucleobases 1275 to 1318 of SEQ ID NO: 1 (Table 8) (antisense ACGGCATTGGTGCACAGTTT; MOE gapmer, wing and gap sizes not given here) = 50
ISIS 416864: MOE gapmer, nucleobases 1275 to 1318 of SEQ ID NO: 1 (Table 8) (antisense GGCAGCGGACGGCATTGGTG; MOE gapmer, wing and gap sizes not given here) = 43
ISIS 416850: MOE gapmer, nucleobases 1275 to 1318 of SEQ ID NO: 1 (Table 8) (antisense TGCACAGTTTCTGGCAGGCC; MOE gapmer, wing and gap sizes not given here) = 75
ISIS 416838: MOE gapmer, nucleobases 1018 to 1042 of SEQ ID NO: 1 (Table 6) (antisense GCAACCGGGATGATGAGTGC; MOE gapmer, wing and gap sizes not given here) = 41
ISIS 417002: MOE gapmer, nucleobases 1275 to 1318 of SEQ ID NO: 1 (Table 8) (antisense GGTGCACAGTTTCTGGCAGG; MOE gapmer, wing and gap sizes not given here) = 116

###

# System: blood coagulation
# experiment: PT and aPTT assay in cynomolgus monkeys (Example 46)
# Format: in vivo
# condition_details: Day −5; platelet poor plasma; relative to PBS group
Strand notation (5' to 3'): a small letter for the sugar, then the base; units joined by * are phosphorothioate-linked, units joined directly phosphodiester-linked; [ ] holds rarer units or linkages, { } end groups; capitals alone tell only the bases. e = 2'-O-(2-methoxyethyl) (MOE); [5mC] = 5-methylcytosine; d = 2'-deoxy (DNA)
aPTT ratio relative to PBS group: recorded values
readout_kind: aPTT ratio relative to PBS group

ISIS 449707: 3-8-3, 4-8-4, 2-10-2, 3-10-3 or 4-10-4 MOE microwalk gapmer (Table 46) (antisense e[5mC]*eA*e[5mC]*eA*dG*dT*dT*dT*d[5mC]*dT*dG*dG*e[5mC]*eA*eG*eG) = 0.87
ISIS 449710: 3-8-3, 4-8-4, 2-10-2, 3-10-3 or 4-10-4 MOE microwalk gapmer (Table 46) (antisense e[5mC]*eA*e[5mC]*dA*dG*dT*dT*dT*d[5mC]*dT*dG*dG*d[5mC]*eA*eG*eG) = 0.98
ISIS 445522: 5-8-5 or 6-8-6 MOE microwalk gapmer (Table 44) (antisense eG*e[5mC]*eA*e[5mC]*eA*dG*dT*dT*dT*d[5mC]*dT*dG*dG*e[5mC]*eA*eG*eG*e[5mC]) = 0.91
ISIS 416858: MOE gapmer, nucleobases 1275 to 1318 of SEQ ID NO: 1 (Table 8) (antisense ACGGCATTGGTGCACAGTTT; MOE gapmer, wing and gap sizes not given here) = 0.96
ISIS 445531: 5-8-5 or 6-8-6 MOE microwalk gapmer (Table 44) (antisense eG*eG*e[5mC]*eA*eT*dT*dG*dG*dT*dG*d[5mC]*dA*d[5mC]*eA*eG*eT*eT*eT) = 0.89
ISIS 416850: MOE gapmer, nucleobases 1275 to 1318 of SEQ ID NO: 1 (Table 8) (antisense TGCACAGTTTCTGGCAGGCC; MOE gapmer, wing and gap sizes not given here) = 0.90
ISIS 449711: 3-8-3, 4-8-4, 2-10-2, 3-10-3 or 4-10-4 MOE microwalk gapmer (Table 46) (antisense eA*e[5mC]*dA*dG*dT*dT*dT*d[5mC]*dT*dG*dG*d[5mC]*eA*eG) = 0.96
